# Test system: P12-Ichikawa
# protocol details: cell viability relative to DMSO control; higher = less cytotoxic
# condition description: RPMI 5 mM glucose + 10% FBS; 48 h; 15.4 µM
metric name: cell viability (%)
Value expressed in %; do not type the unit.

compound	assayed system	quantity unit	meas value
CN(C)c1ccc(C(=O)NCCCCCCC(=O)NO)cc1	P12-Ichikawa	%	0.517
COc1ccc2cc(-c3[nH]c(-c4ccc([S+](C)[O-])cc4)nc3-c3ccncc3)ccc2c1 (stereo unspecified)	P12-Ichikawa	%	120
CN(C)[C@H]\1[C@@H]2[C@@H](O)[C@@H]\3C(=C)C4=C(C(=CC=C4)O)C(=O)C3=C(\O)[C@@]2(O)C(=O)\C(=C1O)C(N)=O	P12-Ichikawa	%	111
COC(=O)N[C@H](C(=O)N[C@@H](Cc1ccccc1)[C@@H](O)CN(Cc1ccc(-c2ccccn2)cc1)NC(=O)[C@@H](NC(=O)OC)C(C)(C)C)C(C)(C)C	P12-Ichikawa	%	113
C=C1C[C@@]2(O)O[C@@]3(C[C@H]2C(C)C)[C@@H](C)CC[C@@H]13	P12-Ichikawa	%	128

Then this compound:
Query: Give cell viability (P12-Ichikawa) of the following compound: C[C@H]1[C@@H](CC(C[C@H]2O[C@@H]3O[C@]4(C)CC[C@H]5[C@H](C)CC[C@@H]([C@H]2C)[C@@]35OO4)C[S+](=O)([O-])c2ccc(COC(=O)N(C)C)cc2)O[C@@H]2O[C@]3(C)CC[C@H]4[C@H](C)CC[C@@H]1[C@@]24OO3
Reply: 33.5

---

# Tested on: NOMO1
# protocol details: cell viability relative to DMSO control; higher = less cytotoxic
# condition description: RPMI 5 mM glucose + 10% dialyzed FBS; 48 h; 0.00234 µM
Entries and their cell viability
Report as a plain number; the unit % is understood.

Please review the entries below; each comes with its answer.
compound	metric name	meas value
O=P(O)(O)C(O)(Cc1cccnc1)P(=O)(O)[O][Na] (centres undefined)	cell viability	80.2
Cn1cc(-c2ccc3ncc(Cc4ccc5ncccc5c4)n3n2)cn1	cell viability	110
CCC1=C(C)CN(C(=O)NCCc2ccc(S(=O)(=O)NC(=O)N[C@H]3CC[C@H](C)CC3)cc2)C1=O	cell viability	97.7
CC(C)[C@@H](N(CCCN)C(=O)C1=CC=C(C)C=C1)C/2=C(\CC3=CC=CC=C3)C(=O)C4=C(O2)C=C(Cl)C=C4	cell viability	34.7
Cc1ccccc1C(C(=O)NC1CCCCC1)N(C(=O)CNc1ccc(C#N)cc1)c1cccc(F)c1 (centres undefined)	cell viability	110
N#Cc1c(C2CCNCC2)cc(-c2c(O)cccc2OCC2CC2)nc1N	cell viability	101
CCOc1ccccc1OCCNC(C)Cc1ccc(OC)c([S+](N)(=O)[O-])c1 (centres undefined)	cell viability	108
COC(=O)N[C@H](C(=O)N[C@@H](Cc1ccccc1)[C@@H](O)CN(Cc1ccc(-c2ccccn2)cc1)NC(=O)[C@@H](NC(=O)OC)C(C)(C)C)C(C)(C)C	cell viability	102
CCOC(=O)c1ccc(C#Cc2ccc3c(c2)C(C)(C)CCS3)nc1	cell viability	108
NC12CC3CC(CC(C3)C1)C2	cell viability	95.8

Query: Give the measured cell viability of CN(C)c1nc(N(C)C)nc(N(C)C)n1 .
Reply: 103

Query: Please give the measured cell viability for this compound: CN(C)[C@H]\1[C@@H]2[C@@H](O)[C@@H]\3C(=C)C4=C(C(=CC=C4)O)C(=O)C3=C(\O)[C@@]2(O)C(=O)\C(=C1O)C(N)=O
Reply: 119

Query: Value lookup for cell viability; key = CN(C)CCC=C1C2=C(C=CC=C2)\C=C/C3=C1C=CC=C3
Reply: 99

Query: What value of cell viability has been reported for the following compound? O=C(Oc1ccc([N+](=O)[O-])cc1)N1CCN(Cc2cccc(Oc3ccccc3)c2)CC1
Reply: 98.5

---

# Tested on: SEM cells
# protocol details: cell viability relative to DMSO control; higher = less cytotoxic
# condition description: RPMI 5 mM glucose + 10% dialyzed FBS; 48 h; 46.1 µM
# cell viability values compiled below
// units = %; emit number, no label

Reference set, count: 2
compound	quantity unit	meas value
CC1(C)O[C@H]2CC(=O)OC[C@]23[C@H]2CC[C@@]4(C)[C@H](c5ccoc5)OC(=O)[C@H]5O[C@]54[C@]2(C)C(=O)C[C@@H]13	%	90
C[C@@H]1CN(CC(=O)N2CC(C)(C)c3ncc(Cc4ccc(F)cc4)cc32)[C@@H](CN2CCOC[C@H]2C)CN1	%	75.6

Query: // map O=P(O)(O)C(O)(Cc1cccnc1)P(=O)(O)[O][Na] (stereo not given) to recorded cell viability (system: SEM cells)
Reply: 123

---

Collected cell viability values appear next to each entry.
# Tested on: SEM cells
# protocol details: cell viability relative to DMSO control; higher = less cytotoxic
# condition description: HPLM + 10% dialyzed FBS; 48 h; 0.569 µM
Dear colleague, please send the value followed by its unit.

Here are 5 compounds together with their reported answers.
compound	assayed system	cell viability
CN[C@@H](C)C(=O)N[C@H]1CCCC[C@H]2CC[C@@H](C(=O)N[C@@H](c3ccccc3)c3cn(CCCCc4ccc(CCCCn5cc([C@@H](NC(=O)[C@@H]6CC[C@@H]7CCCC[C@H](NC(=O)[C@H](C)NC)C(=O)N76)c6ccccc6)nn5)cc4)nn3)N2C1=O	SEM cells	88.1%
CC1OC(OC/2=C(/OC3=C(C(=CC(=C3)O)O)C2=O)C4=CC=C(O)C=C4)C(O)C(OC(C)=O)C1OC(C)=O (stereo not drawn)	SEM cells	106%
COc1cc(N2CCC(N3CCN(C)CC3)CC2)ccc1Nc1ncnc(Nc2ccccc2[S+](=O)([O-])C(C)C)n1	SEM cells	104%
CC(=O)SCC(Cc1ccccc1)C(=O)NCC(=O)OCc1ccccc1 (stereo not drawn)	SEM cells	105%
CN1C(=O)COc2c(C(=O)NC3CN4CCC3CC4)cc(Cl)cc21 (stereo not drawn)	SEM cells	118%

Query: Could you tell me which cell viability is on file for CCOc1cc2c(c(F)c1OCC)C(=N)N(CC(=O)c1cc(N3CCOCC3)c(OC)c(C(C)(C)C)c1)C2 ?
Reply: 117%

Query: Which cell viability value is on record for CC(C)[C@@H](N(CCCN)C(=O)C1=CC=C(C)C=C1)C/2=C(\CC3=CC=CC=C3)C(=O)C4=C(O2)C=C(Cl)C=C4 ?
Reply: 28.2%

Query: May I ask what cell viability has been recorded for COc1ccc2cc(-c3[nH]c(-c4ccc([S+](C)[O-])cc4)nc3-c3ccncc3)ccc2c1 (stereo not drawn) ?
Reply: 121%

Query: Which cell viability is reported for this compound? C[C@H]1[C@@H](CC(C[C@H]2O[C@@H]3O[C@]4(C)CC[C@H]5[C@H](C)CC[C@@H]([C@H]2C)[C@@]35OO4)C[S+](=O)([O-])c2ccc(COC(=O)N(C)C)cc2)O[C@@H]2O[C@]3(C)CC[C@H]4[C@H](C)CC[C@@H]1[C@@]24OO3
Reply: 72.9%

Query: Need cell viability of Cc1nc2c([nH]1)-c1ccccc1N(C(=O)c1ccc(NC(=O)c3ccccc3-c3ccccc3)cc1)CC2 , thanks.
Reply: 123%

---

Below, each of the compounds is paired with its reported cell viability value.
# System: NOMO1
# protocol details: cell viability relative to DMSO control; higher = less cytotoxic
# condition description: RPMI 5 mM glucose + 10% dialyzed FBS; 48 h; 0.0211 µM
Report the figure in % without appending any unit label.

Example entries begin here.
compound	cell viability, %
CC1(C)O[C@H]2CC(=O)OC[C@]23[C@H]2CC[C@@]4(C)[C@H](c5ccoc5)OC(=O)[C@H]5O[C@]54[C@]2(C)C(=O)C[C@@H]13	101
CCC1=C(C)CN(C(=O)NCCc2ccc(S(=O)(=O)NC(=O)N[C@H]3CC[C@H](C)CC3)cc2)C1=O	92.3
COc1ccc2cc(-c3[nH]c(-c4ccc([S+](C)[O-])cc4)nc3-c3ccncc3)ccc2c1 (stereo unspecified)	118
Cc1cnc(Nc2ccc(OCCN3CCCC3)cc2)nc1Nc1cccc([S+](=O)([O-])NC(C)(C)C)c1	105
Cn1cc(-c2ccc3ncc(Cc4ccc5ncccc5c4)n3n2)cn1	112
COC1=CC=C(C=C1)C/2=C/OC3=CC(=CC=C3C2=O)O	106
CN(C)CCC=C1C2=C(C=CC=C2)\C=C/C3=C1C=CC=C3	104
CO[C@@H]1[C@H](N(C)C(=O)c2ccccc2)C[C@H]2O[C@]1(C)n1c3ccccc3c3c4c(c5c6ccccc6n2c5c31)C(=O)NC4	111
CCCn1c(=O)c2[nH]c(C34CC5CC3C[C@@H](C5)C4)nc2n(CCC)c1=O	95.5
CCCCc1oc2ccc(NS(C)(=O)=O)cc2c1C(=O)c1ccc(OCCCN(CCCC)CCCC)cc1	102

Query: Find the recorded cell viability belonging to COc1cc(N2CCC(N3CCN(C)CC3)CC2)ccc1Nc1ncnc(Nc2ccccc2[S+](=O)([O-])C(C)C)n1 and report it.
Reply: 89.3

Source: the supplement of paper PMC11451515
